method-description: Pharmacokinetics of the compounds in mice (IV and oral single dose)
Assay type: in vivo
condition-summary: mouse; Balb/c mice, single dose, plasma; Oral (PO) 3 mg/kg suspension, IV 1 mg/kg; route not given
measured-property: AUC(0-t) (ng·h/mL)
Provide the reading as a plain figure in ng·h/mL.

Some molecules with known AUC(0-t) results, for comparison:
{"columns": ["chemical-structure", "AUC(0-t) / ng·h/mL"],
 "data": [
  ["COCCNC(=O)c1nn(Cc2ncnc(OC)c2C)c2cc(C)cnc12", 5130],
  ["COc1nc(C)ccc1Cn1nc(C(=O)NCC2(O)CC2)c2ncc(C)cc21", 2160],
  ["COc1ncnc(Cn2nc(C(=O)NCC3(O)CC3)c3ncc(C)nc32)c1C", 1680],
  ["CCOc1ncnc(Cn2nc(C(=O)NCC3(O)CC3)c3ncc(C)cc32)c1C", 2810],
  ["CCOc1ncnc(Cn2cc(C(=O)NCC3(O)CC3)c3ncc(C)nc32)c1C", 2150]
]}

Turning to the following molecule.
(Q) Param item = COc1ncnc(Cn2cc(C(=O)NCC3(O)CC3)c3ncc(C)cc32)c1C ; retrieve measured AUC(0-t).
(A) 2180

====

method-description: Pharmacokinetics of the compounds in mice (IV and oral single dose)
Type: in vivo
condition-summary: mouse; Balb/c mice, single dose, plasma; Oral (PO) 3 mg/kg suspension, IV 1 mg/kg; route not given
measured-property: Cmax
Phrase the answer as number then unit, nothing more needed.

Study these solved cases before continuing.
{"columns": ["chemical-structure", "Cmax"],
 "data": [
  ["COc1ncnc(Cn2nc(C(=O)NCC3(O)CC3)c3ncc(C)nc32)c1C", "1600 ng/mL"],
  ["COc1cnc2c(C(=O)NCC3(O)CC3)cn(Cc3ncnc(OC)c3C)c2n1", "1720 ng/mL"],
  ["COCCNC(=O)c1nn(Cc2ncnc(OC)c2C)c2cc(C)cnc12", "4000 ng/mL"],
  ["COc1ncnc(Cn2cc(C(=O)NCC3(O)CC3)c3ncc(C)nc32)c1C", "1660 ng/mL"],
  ["COc1nc(C)ccc1Cn1nc(C(=O)NCC2(O)CC2)c2ncc(C)cc21", "1570 ng/mL"],
  ["CCOc1ncnc(Cn2nc(C(=O)NCC3(O)CC3)c3ncc(C)cc32)c1C", "2720 ng/mL"],
  ["CCOc1ncnc(Cn2cc(C(=O)NCC3(O)CC3)c3ncc(C)nc32)c1C", "1320 ng/mL"],
  ["COc1ncnc(Cn2nc(C(=O)NCC3(O)CC3)c3ncc(C)cc32)c1C", "1730 ng/mL"]
]}

Now take the following compound into account.
(Q) If you can, please state the reported Cmax value of COc1ncnc(Cn2cc(C(=O)NCC3(O)CC3)c3ncc(C)cc32)c1C .
(A) 1470 ng/mL

====

method-description: Pharmacokinetics of the compounds in mice (IV and oral single dose)
Type: in vivo
condition-summary: mouse; Balb/c mice, single dose, plasma; Oral (PO) 3 mg/kg suspension, IV 1 mg/kg; route not given
Measured AUC(0-t), listed per entry.
Your answer is read as ng·h/mL, so omit the unit and give the number.

Below, each entry is followed by its recorded AUC(0-t) result.
{"columns": ["molecule", "value"],
 "data": [
  ["COc1cnc2c(C(=O)NCC3(O)CC3)cn(Cc3ncnc(OC)c3C)c2n1 [Example 12]", 2920],
  ["COc1ncnc(Cn2nc(C(=O)NCC3(O)CC3)c3ncc(C)cc32)c1C [Example 1]", 2850]
]}

(Q) State the recorded AUC(0-t) for this entry: COc1ncnc(Cn2cc(C(=O)NCC3(O)CC3)c3ncc(C)nc32)c1C [Example 11]
(A) 2570
